Origin of measurements: PubChem BioAssay (NCI)

# ASSAY_SUMMARY: NCI Yeast Anticancer Drug Screen. Data for the rad50EPP+ strain (AID 151);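 note: 0% = growth of vehicle-treated control cultures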
# CONDITION: S. cerevisiae rad50 mutant strain, at 100.0 µM, stronger effect = higher value
This is part of a sample that, as a whole, favours compounds with a hit. Of some 79,000 tested, about 15% had one in any assay.
The threshold is inclusive: growth inhibition of exactly 80% counts as 1.0; values below receive 0.0.

COMPOUND: N#C/C(=C\NC(=S)Nc1ccc(S(N)(=O)=O)cc1)C(=O)c1ccc2ccccc2c1
GROUP: 0.0
--
COMPOUND: Nc1ccc2c(c1)C(=O)c1c(F)cccc1-2
GROUP: 1.0
--
COMPOUND: CCCC/C=C1\CCC(CN2CCCC2)C1=O (centres undefined)
GROUP: 0.0
--
COMPOUND: O=C(O)c1ccc2cc(Cl)c3ccccc3c2c1
GROUP: 0.0
--
COMPOUND: O=CC1(F)CC1(c1ccccc1)c1ccccc1 (centres undefined)
GROUP: 0.0
--
COMPOUND: CCN1CCC(O)(c2ccc(Oc3ccc(Cl)cc3)cc2)C(C(=O)c2ccc(Oc3ccc(Cl)cc3)cc2)C1 (centres undefined)
GROUP: 0.0
--
COMPOUND: O=[N+]([O-])c1cc[n+]([O-])c(Cl)c1
GROUP: 1.0
--
COMPOUND: O=C1C(=O)N(c2ccccc2)[C@@]2(c3ccccc3)C(=Nc3ccccc3)OC(c3ccccc3)=C12
GROUP: 1.0
--
COMPOUND: CC1=CC(=C(c2ccc(N)c(C)c2)c2ccc(N)c(C)c2)C=CC1=N
GROUP: 1.0
--
COMPOUND: O=C1C(/C=C/c2ccc(Cl)cc2)=NNC2N1N=C1NC(=O)C3(NN12)c1ccccc1-c1ccccc13 (centres undefined)
GROUP: 0.0
--
COMPOUND: COc1ccc2nc3cccc([N+](=O)[O-])c3c(NCCNCCN(C)C)c2c1
GROUP: 0.0
--
COMPOUND: Cc1cc(Cl)ccc1NC(=O)/C(Cl)=C(/Cl)C(=O)O
GROUP: 1.0
--
COMPOUND: CC(=O)/C=C/c1cc([N+](=O)[O-])ccc1O
GROUP: 1.0
--
COMPOUND: CC(C)OP(=O)(OC(C)C)C(=NCCO)NNc1ccc([N+](=O)[O-])cc1
GROUP: 1.0
--
COMPOUND: C/C(=N\OCC(O)CNCCSCc1ccccc1)c1ccccc1Cl (centres undefined)
GROUP: 0.0
--
COMPOUND: O=c1c2ccccc2nc(-c2ccc(Cl)cc2)n1O
GROUP: 1.0
--
COMPOUND: Cc1cccc(/C=N/NC(=S)NC2CCCCC2)n1
GROUP: 0.0
--
COMPOUND: COc1ccc(C(=O)/C=C\c2ccc(Cl)c(Cl)c2)cc1
GROUP: 0.0
--
COMPOUND: CC(C)C(c1ccccc1)c1ccccc1
GROUP: 1.0
--
COMPOUND: CCCCCCCCNCCCCCCCC
GROUP: 1.0
--
COMPOUND: CC1=CC(=O)C=CC1=Nc1cc(Cl)c(O)c(Cl)c1
GROUP: 0.0
--
COMPOUND: O=C(/C=C/c1ccsc1)c1cccs1
GROUP: 1.0

###

Known growth inhibition of a selection of molecules
# ASSAY_SUMMARY: NCI Yeast Anticancer Drug Screen. Data for the rad18 strain (AID 177)
# CONDITION: S. cerevisiae rad18 mutant growth inhibition; at 11.0 µM; stronger effect = higher value
About 79,000 compounds went through this panel and 15% of them were active in at least one assay; those are over-represented in the sample as a whole.

MOLECULE: CCC1(O)C(=O)OCc2c1cc1n(c2=O)Cc2cc3c(N)cccc3nc2-1 (stereo not given)
growth inhibition (%): -31

MOLECULE: CCC(C)COC(=O)Nc1cccc(Cl)c1 (stereo not given)
growth inhibition (%): 1

MOLECULE: CCOC(=O)C(Cc1c2ccccc2cc2ccccc12)(NC(C)=O)C(=O)OCC
growth inhibition (%): -1

MOLECULE: COC(=O)C(Cc1c[nH]c2ccccc12)N1CN(C)c2ccccc2C1=O (stereo not given)
growth inhibition (%): 3

MOLECULE: Oc1ccc(N=Nc2ccc(Cl)cc2)cc1
growth inhibition (%): 77

MOLECULE: COc1ccc(C(OCC2OC(n3cnc4c(=O)n(Cc5ccccc5[N+](=O)[O-])nnc43)C(O)C2O)(c2ccccc2)c2ccc(OC)cc2)cc1 (stereo not given)
growth inhibition (%): 33

MOLECULE: CC(C)(C)c1ccc2c(c1)C(=O)c1ccccc1C2=O
growth inhibition (%): -6

MOLECULE: CCC[CH2][Ge]([CH2]CCC)([CH2]CCC)[O]C(=O)C(O)c1ccccc1 (stereo not given)
growth inhibition (%): 55

MOLECULE: O=[N+]([O-])c1cccc2nc3ccccc3c(NCCCN3CCCCC3)c12
growth inhibition (%): 97

MOLECULE: O=C(O)C1CCCCC1c1c2ccc(=O)cc-2oc2cc(O)ccc12 (stereo not given)
growth inhibition (%): -3
